Molecular target: Fibroblast growth factor 22 (Homo sapiens)
Assay: FGF22 ligand-induced thermal stabilization – biophysical, thermal shift, cherry-pick, FGF22 synaptogenesis inhibitor project, dose response (AID 687022)
Conditions: recombinant FGF22 thermal shift, SYPRO orange melting
measured attribute: AbsAC1 (concentration giving Tm-shift threshold 1.0)

Below, 6 compounds whose answers are already recorded.
compound	reported measurement
Cc1cc(NC(=O)Nc2ccc3c(ccn3C)c2)sn1	3.42 µM
COc1ccccc1NS(=O)(=O)c1cc(C(=O)Nc2ccc(S(=O)(=O)Nc3onc(C)c3C)cc2)ccc1C	4.31 µM
Nc1ccc(C(=O)N/N=C/c2c[nH]c3ccccc23)cc1	3.41 µM
O=C(NCC[C@@H]1CC[C@@H](NC(=O)Nc2cc(F)ccc2F)[C@@H](CO)O1)Nc1ccc(F)cc1	18.1 µM
O=C(NN1C(=O)CSC1=S)C(=O)NN1C(=O)CSC1=S	5.24 µM
N#Cc1ccc(NC(=O)Nc2cccc(C#N)c2)cc1	4.49 µM

Shift focus to the following entry.
// AbsAC1 (concentration giving Tm-shift threshold 1.0) (Fibroblast growth factor 22 (Homo sapiens)) for O=C(Cn1cc(COc2ccc(Br)cc2)nn1)c1ccc(O)cc1 = 7.63 µM

====

Molecular target: Fibroblast growth factor 22 (Homo sapiens)
Test: FGF22 ligand-induced thermal stabilization – biophysical, thermal shift, cherry-pick, FGF22 synaptogenesis inhibitor project, dose response (AID 687022)
Conditions: recombinant FGF22 thermal shift, SYPRO orange melting
Active and inactive are the calls of the source.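 The calls were made as follows: active = Fitted curve of melting temperature shift crosses the 1.0 threshold at or below the sample's highest valid tested concentration; inconclusive = Flat fit with activity 30 to 70, or invalid fit; inactive = Opposite direction, flat within 30, or no crossing.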
Log the outcome using a class from Yes for active, No for inactive

GET /call?item= O=C(N/N=C\c1cccnc1)c1cc(-c2ccc(Cl)s2)[nH]n1 returns the recorded outcome of this test.
No

GET /call?item= Oc1ccc(-c2csc(Nc3ccccn3)n2)c(O)c1 returns the recorded outcome of this test.
Yes

GET /call?item= CC(=O)c1c(C)nc(-c2ccc(OCC(=O)Nc3ccc(F)cc3)cc2)n1O returns the recorded outcome of this test.
Yes

GET /call?item= C[C@H]1CN([C@@H](C)CO)S(=O)(=O)c2ccc(-c3ccncc3)cc2O[C@H]1CN(C)C(=O)Nc1ccc(C(F)(F)F)cc1 returns the recorded outcome of this test.
Yes

GET /call?item= O=C(CCc1ccc(O)cc1)c1c(O)cc(O)cc1O returns the recorded outcome of this test.
Yes

====

Biological target: Fibroblast growth factor 22 (Homo sapiens) (UniProt Q9HCT0)
Sequence (Q9HCT0 whole entry, looked up): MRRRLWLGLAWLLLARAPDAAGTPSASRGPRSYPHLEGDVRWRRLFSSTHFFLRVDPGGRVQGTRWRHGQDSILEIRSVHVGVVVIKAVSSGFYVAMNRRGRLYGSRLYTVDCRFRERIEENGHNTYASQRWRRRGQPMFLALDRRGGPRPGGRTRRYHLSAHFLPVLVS
Experiment: FGF22 ligand-induced thermal stabilization – biophysical, thermal shift, cherry-pick, FGF22 synaptogenesis inhibitor project, dose response (AID 687022)
Settings: recombinant FGF22 thermal shift, SYPRO orange melting
Activity calls are given as the source filed them.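 How the source made its calls: active means Fitted curve of melting temperature shift crosses the 1.0 threshold at or below the sample's highest valid tested concentration; inconclusive means Flat fit with activity 30 to 70, or invalid fit; inactive means Opposite direction, flat within 30, or no crossing.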
Log the outcome using a class from true = active, false = inactive

Here are 4 compounds together with their reported answers.
compound	discrete label
O=C(NNC(=O)c1ccccc1F)c1ccc(NS(=O)(=O)c2ccc(F)cc2)cc1	true
CN1C(=O)c2cc(NC(=O)c3cccc(F)c3)ccc2OC[C@H]2O[C@@H](CC(=O)N3CCc4ccccc4C3)CC[C@H]21	true
CN1C(=O)c2cc(NC(=O)c3cccc(F)c3)ccc2OC[C@@H]2O[C@H](CC(=O)NCC3CCCCC3)CC[C@@H]21	true
CC(=O)Nc1ccc(/C(C)=N/Nc2nc(Nc3ccccc3)nc(N3CCOCC3)n2)cc1	true

GET /call?item= COc1ccc(-c2ccc([C@H]3[C@H]4CN(C(=O)c5ccc6c(c5)OCO6)CCCCN4[C@H]3CO)cc2)cc1 returns the recorded outcome of this test.
true

GET /call?item= Cn1ncc2c(Nc3ccc(Cl)c(Cl)c3)ncnc21 returns the recorded outcome of this test.
true

GET /call?item= O=C(Nc1ccc(F)c(Cl)c1)C1CCCN(C2=NS(=O)(=O)c3ccccc32)C1 (centres undefined) returns the recorded outcome of this test.
false

GET /call?item= O=C(Nc1cccc(C(F)(F)F)c1)c1cccc(NS(=O)(=O)c2ccc(O)c(C(=O)O)c2)c1 returns the recorded outcome of this test.
true

GET /call?item= COc1ccc(/C=N/NC(=O)c2ccc(NS(=O)(=O)c3cccs3)cc2)cc1 returns the recorded outcome of this test.
true

====

Molecular target: Fibroblast growth factor 22 (Homo sapiens) (UniProt Q9HCT0)
Experiment: FGF22 ligand-induced thermal stabilization – biophysical, thermal shift, cherry-pick, FGF22 synaptogenesis inhibitor project, dose response (AID 687022)
Details: recombinant FGF22 thermal shift, SYPRO orange melting
Activity calls are given as the source filed them.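 How the source made its calls: active means Fitted curve of melting temperature shift crosses the 1.0 threshold at or below the sample's highest valid tested concentration; inconclusive means Flat fit with activity 30 to 70, or invalid fit; inactive means Opposite direction, flat within 30, or no crossing.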
Entries and their AbsAC1 (concentration giving Tm-shift threshold 1.0) values follow.

compound	reported measurement
O=C(O)c1ccccc1Nc1ccc([N+](=O)[O-])cc1	16.2 µM
CC(=O)Nc1ccc(S(=O)(=O)NCCc2c[nH]c3ccc(C)cc23)cc1	21.6 µM
O=C(NCC[C@@H]1CC[C@H](NC(=O)c2cnccn2)[C@H](CO)O1)Nc1ccc(F)cc1	41 µM

Consider COC(=O)c1cc(OC)c(OC)cc1NC(=O)c1ccccc1C . Its measured AbsAC1 (concentration giving Tm-shift threshold 1.0) is 16.7 µM

Consider CN1C(=O)c2cc(NC(=O)c3cccc(F)c3)ccc2OC[C@@H]2O[C@H](CC(=O)NCc3ccccc3)CC[C@@H]21 . Its measured AbsAC1 (concentration giving Tm-shift threshold 1.0) is 21 µM

Consider COC12CC(=O)C(C(C)=O)=C(O)C1(C)c1c(O)c(C)c(O)c(C(C)=O)c1O2 (centres undefined) . Its measured AbsAC1 (concentration giving Tm-shift threshold 1.0) is 6.77 µM

Consider CC(=O)C1=C(O)C(=O)N(c2ccc(S(=O)(=O)Nc3nccs3)cc2)C1c1ccc(F)cc1 (centres undefined) . Its measured AbsAC1 (concentration giving Tm-shift threshold 1.0) is > 19.5 µM (inactive)

Consider COc1cccc(NC(=O)CN(C)C(=O)c2ccc(N3CCCCC3)c([N+](=O)[O-])c2)c1 . Its measured AbsAC1 (concentration giving Tm-shift threshold 1.0) is 11.4 µM

Consider O=C(N/N=C/c1ccc(C(F)(F)F)cc1)c1ccc(O)cc1 . Its measured AbsAC1 (concentration giving Tm-shift threshold 1.0) is 2.48 µM

====

Target: Fibroblast growth factor 22 (Homo sapiens) (UniProt Q9HCT0)
Assay: FGF22 ligand-induced thermal stabilization – biophysical, thermal shift, cherry-pick, FGF22 synaptogenesis inhibitor project, dose response (AID 687022)
Details: recombinant FGF22 thermal shift, SYPRO orange melting
Entries and their AbsAC1 (concentration giving Tm-shift threshold 1.0) values follow.

compound	reported measurement
COc1cc(NS(=O)(=O)c2ccc(NS(=O)(=O)c3ccc(C)cc3)cc2)nc(OC)n1	3.69 µM

Consider O=C(Cc1c[nH]c2ccccc12)N1CCN(S(=O)(=O)c2cccc(Cl)c2Cl)CC1 . Its measured AbsAC1 (concentration giving Tm-shift threshold 1.0) is 13.4 µM

Consider COc1cc(OC)cc(C(=O)Nc2ccc(S(=O)(=O)Nc3nc(C)cc(C)n3)cc2)c1 . Its measured AbsAC1 (concentration giving Tm-shift threshold 1.0) is 15.5 µM

Consider O=C(Nc1ccccc1)O/N=C/c1ccc(F)cc1 . Its measured AbsAC1 (concentration giving Tm-shift threshold 1.0) is 20.3 µM

Consider O=[N+]([O-])c1ccc(S(=O)(=O)Nc2nnc(C(F)(F)F)s2)cc1 . Its measured AbsAC1 (concentration giving Tm-shift threshold 1.0) is 4.67 µM

Consider Cc1cc(C)n(-c2ccc(C(=O)Nc3ccc(S(=O)(=O)N(C)C)cc3)cc2)n1 . Its measured AbsAC1 (concentration giving Tm-shift threshold 1.0) is 9.32 µM

Consider CCN1C(=O)C(CC(=O)Nc2ccc(OC)cc2)N(CCc2ccc(OC)cc2)C1=S (stereo not given) . Its measured AbsAC1 (concentration giving Tm-shift threshold 1.0) is 6.95 µM

Consider Nc1nc(O)c(Sc2ccccc2[N+](=O)[O-])c(=O)[nH]1 . Its measured AbsAC1 (concentration giving Tm-shift threshold 1.0) is 2.7 µM

Consider CC(=O)Nc1ccc(S(=O)(=O)N(CCc2ccccc2)CC(=O)N/N=C/c2ccc(C(=O)O)cc2)cc1 . Its measured AbsAC1 (concentration giving Tm-shift threshold 1.0) is 7.42 µM

Consider O=C(N/N=C/c1c[nH]c2ccccc12)c1cccc(Cl)c1 . Its measured AbsAC1 (concentration giving Tm-shift threshold 1.0) is 2.15 µM

====

Target: Fibroblast growth factor 22 (Homo sapiens) (UniProt Q9HCT0)
Experiment: FGF22 ligand-induced thermal stabilization – biophysical, thermal shift, cherry-pick, FGF22 synaptogenesis inhibitor project, dose response (AID 687022)
Settings: recombinant FGF22 thermal shift, SYPRO orange melting
Activity calls are given as the source filed them.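 The calls were made as follows: active = Fitted curve of melting temperature shift crosses the 1.0 threshold at or below the sample's highest valid tested concentration; inconclusive = Flat fit with activity 30 to 70, or invalid fit; inactive = Opposite direction, flat within 30, or no crossing.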
Entries and their AbsAC1 (concentration giving Tm-shift threshold 1.0) values follow.

Below, 5 molecules whose answers are already recorded.
molecule	reported measurement
O=c1c2ccccc2[nH]c2ccc(F)cc12	> 38 µM (inactive)
O=C(CCNC(=O)c1ccccc1Cl)Nc1nc2ccc(F)cc2s1	9.92 µM
O=C(NCc1ccc(Cl)cc1)c1n[nH]c([N+](=O)[O-])c1Cl	5.18 µM
COc1ccc(NC(=O)COC(=O)Cc2c[nH]c3ccccc23)cc1Cl	2.76 µM
COc1ccccc1NC(=O)Nc1cccc(NC(C)=O)c1	7.52 µM

Shift focus to the following entry.
// AbsAC1 (concentration giving Tm-shift threshold 1.0) (Fibroblast growth factor 22 (Homo sapiens) (UniProt Q9HCT0)) for CCOc1cccc(C(=O)Nc2ccc3[nH]ncc3c2)c1 = 3.89 µM

Where these numbers come from: PubChem BioAssay AID687022
